# Test system: SF-295
# test: Cytotoxicity against human SF295 cells assessed as reduction in cell viability after 72 hrs by MTT assay
# conditionContext: SF-295, 72 h
measuredAttribute: IC50

# example entries with known answers
- smilesStructure: "O=C1c2ccccc2C(=O)c2c(-c3ccccc3[N+](=O)[O-])coc21"
  result: "2.94 µM"
- smilesStructure: "CCOC(=O)Cc1oc2c(c1-c1cc(OC)c(OC)c(OC)c1)C(=O)c1ccccc1C2=O"
  result: "10.3 µM"
- smilesStructure: "O=C1c2ccccc2C(=O)c2c(-c3cccs3)coc21"
  result: "4.96 µM"
- smilesStructure: "COc1ccc(-n2cc(-c3ccccc3)c3c2C(=O)c2ccccc2C3=O)cc1"
  result: "> 13.2 µM"
- smilesStructure: "CCOC(=O)Cc1oc2c(c1-c1ccc(OC)cc1)C(=O)c1ccccc1C2=O"
  result: "> 12.8 µM"
- smilesStructure: "CCOC(=O)Cc1c(-c2ccccc2)c2c(n1-c1ccc(C)cc1)C(=O)c1ccccc1C2=O"
  result: "> 11.1 µM"

[in] Give the reported IC50 for this compound. CCOC(=O)Cc1oc2c(c1-c1ccc(Cl)cc1)C(=O)c1ccccc1C2=O
[out] > 12.7 µM

[in] Tell me IC50 reported for COc1ccc(-n2cc(-c3ccco3)c3c2C(=O)c2ccccc2C3=O)cc1
[out] > 13.5 µM

[in] Supply reported IC50 belonging to this compound: O=C1c2ccccc2C(=O)c2c(-c3ccc(Br)cc3)coc21
[out] 3.49 µM

[in] Tell me measured IC50 for COc1ccc(-c2cn(-c3ccc(F)cc3)c3c2C(=O)c2ccccc2C3=O)cc1 please.
[out] > 13.2 µM

###

# Tested on: Jurkat
# test: Cytotoxicity against human Jurkat cell viability after 72 hrs by MTT assay
measuredAttribute: IC50 (nM)
API: value field is a number in nM; no unit string.

Example entries and their recorded answers appear below.
- smilesStructure: "CSc1ccc(-c2coc3c2C(=O)c2ccccc2C3=O)cc1"
  measuredAttribute: "IC50"
  result: 2180
- smilesStructure: "O=C1c2ccccc2C(=O)c2c(-c3ccc(F)cc3)coc21"
  measuredAttribute: "IC50"
  result: 3450

[in] Fill in IC50 for COc1ccc(-c2coc3c2C(=O)c2ccccc2C3=O)cc1 tested with Jurkat.
[out] 3810

###

# System: HCT-116
# test: Cytotoxicity against human HCT116 cells assessed as reduction in cell viability after 72 hrs by MTT assay
# Format: functional, cell-based
# conditionContext: HCT-116, 72 h
Property: IC50; scope: individual molecules

Recorded IC50, per entry:
- smilesStructure: "O=C1c2ccccc2C(=O)c2c(-c3cccc4c3OCO4)coc21"
  measuredAttribute: "IC50"
  result: "2.76 µM"
- smilesStructure: "CCOC(=O)Cc1oc2c(c1-c1cccs1)C(=O)c1ccccc1C2=O"
  measuredAttribute: "IC50"
  result: "13.7 µM"
- smilesStructure: "Cc1ccc(-c2cn(-c3cccc(Br)c3)c3c2C(=O)c2ccccc2C3=O)cc1"
  measuredAttribute: "IC50"
  result: "> 13.2 µM"
- smilesStructure: "COc1ccc(-n2cc(-c3ccc(C)cc3)c3c2C(=O)c2ccccc2C3=O)cc1"
  measuredAttribute: "IC50"
  result: "> 12.7 µM"
- smilesStructure: "CCOC(=O)Cc1c(-c2ccccc2)c2c(n1-c1ccc(C)cc1)C(=O)c1ccccc1C2=O"
  measuredAttribute: "IC50"
  result: "> 11.1 µM"

[in] Write down IC50 measured for item CSc1ccc(-c2coc3c2C(=O)c2ccccc2C3=O)cc1
[out] 6.03 µM

[in] Return reported IC50. Input molecule: Cc1ccc(-c2cn(-c3ccc(C)cc3)c3c2C(=O)c2ccccc2C3=O)cc1
[out] > 11.3 µM

Data provenance: ChEMBL document CHEMBL4152217
